Source listed as the supplement of paper PMC7125110.

B1: glmS ribozyme (parent)
chain: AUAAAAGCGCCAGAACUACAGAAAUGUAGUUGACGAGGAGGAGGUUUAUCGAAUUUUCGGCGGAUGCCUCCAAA

- Variants of: B1
- assay_method_text: self-cleavage kobs at 160 uM GlcN6P; higher = faster cleavage; RNA array
- condition_summary: with glucosamine-6-phosphate
Variants at the floor of the assay were thinned out.
Measured self-cleavage kobs at 160 uM GlcN6P, listed per entry.

{"mutation_label": "C34U C67U", "self-cleavage kobs at 160 uM GlcN6P": "< 1e-05 s⁻¹"}
{"mutation_label": "C11A A15U C70G", "self-cleavage kobs at 160 uM GlcN6P": "4.95e-05 s⁻¹"}
{"mutation_label": "A53C C71G", "self-cleavage kobs at 160 uM GlcN6P": "4.25e-05 s⁻¹"}
{"mutation_label": "G40A C70A", "self-cleavage kobs at 160 uM GlcN6P": "6.86e-05 s⁻¹"}
{"mutation_label": "C10U A12C U31G A42G", "self-cleavage kobs at 160 uM GlcN6P": "< 1e-05 s⁻¹"}
{"mutation_label": "G35A C58G", "self-cleavage kobs at 160 uM GlcN6P": "< 1e-05 s⁻¹"}
{"mutation_label": "G29C A48C G62U", "self-cleavage kobs at 160 uM GlcN6P": "< 1e-05 s⁻¹"}
{"mutation_label": "C16U G40C U47G", "self-cleavage kobs at 160 uM GlcN6P": "6.77e-05 s⁻¹"}
